System: Staphylococcus epidermidis
Experiment: Antibacterial activity against methicillin-resistant Staphylococcus epidermidis 12-11 by broth microdilution method
Format: functional
What MIC was measured for each of the following?
Report the figure in µg/mL without appending any unit label.

Data request: Which MIC is listed for "CC[C@H]1OC(=O)[C@H](C)[C@@H](O[C@H]2C[C@@](C)(OC)[C@@H](O[C@@H]3O[C@H](C)[C@@H](OCc4ccccc4)[C@H](N(C)C)[C@H]3O)[C@H](C)O2)[C@H](C)[C@@H](O[C@@H]2O[C@H](C)C[C@H](N(C)C)[C@H]2O)[C@@](C)(OC)C[C@@H](C)C(=O)[C@H](C)[C@H]2OC(=O)O[C@@]21C" ?
Data returned: 16

Data request: Quick one: "CC[C@H]1OC(=O)[C@H](C)[C@@H](O[C@H]2C[C@@](C)(OC)[C@@H](O[C@@H]3O[C@H](C)[C@@H](O)[C@H](N(C)C)[C@H]3O)[C@H](C)O2)[C@H](C)[C@@H](O[C@@H]2O[C@H](C)C[C@H](N(C)C)[C@H]2O)[C@@](C)(OC)C[C@@H](C)C(=O)[C@H](C)[C@@H](O)[C@]1(C)O"
Data returned: 2

Data request: Quick one: "CC[C@H]1OC(=O)[C@H](C)[C@@H](O[C@H]2C[C@@](C)(OC)[C@@H](O[C@@H]3O[C@H](C)[C@@H](O)[C@H](N(C)C)[C@H]3OC(=O)c3ccccc3)[C@H](C)O2)[C@H](C)[C@@H](O[C@@H]2O[C@H](C)C[C@H](N(C)C)[C@H]2O)[C@@](C)(OC)C[C@@H](C)C(=O)/C(C)=C/[C@]1(C)O"
Data returned: 32

Data request: Quick one: "CC[C@H]1OC(=O)[C@H](C)[C@@H](O[C@H]2C[C@@](C)(OC)[C@@H](O)[C@H](C)O2)[C@H](C)[C@@H](O[C@@H]2O[C@H](C)C[C@H](N(C)C)[C@H]2O)[C@](C)(OC)C[C@@H](C)C(=O)[C@H](C)[C@@H](O)[C@]1(C)O"
Data returned: 4

Data request: Quick one: "CC[C@H]1OC(=O)[C@H](C)[C@@H](O[C@H]2C[C@@](C)(OC)[C@@H](O[C@@H]3O[C@H](C)[C@@H](O)[C@H](N(C)C)[C@H]3OC(=O)c3ccccc3)[C@H](C)O2)[C@H](C)[C@@H](O[C@@H]2O[C@H](C)C[C@H](N(C)C)[C@H]2O)[C@@](C)(OC)C[C@@H](C)C(=O)[C@H](C)[C@@H](O)[C@]1(C)O"
Data returned: 16

Data request: Quick one: "CC[C@H]1OC(=O)[C@H](C)[C@@H](O[C@H]2C[C@@](C)(OC)[C@@H](O[C@@H]3O[C@H](C)[C@@H](O)[C@H](N(C)C)[C@H]3O)[C@H](C)O2)[C@H](C)[C@@H](O[C@@H]2O[C@H](C)C[C@H](N(C)C)[C@H]2O)[C@@](C)(OC)C[C@@H](C)C(=O)[C@H](C)[C@H]2OC(=O)O[C@@]21C"
Data returned: 16
